Ref: patent US4226865A

Experiment: Toxicity (LD50), p.o. in the mouse
Conditions: in vivo, po
Experimental: Thus, the thiobenzamides of formula I to be tested were administered p.o. to rats. One hour after the administration, the rats were killed and the MAO inhibiting activity in the liver homogenates was measured according to the method in Biochem. Pharmacol. 12, pp. 1439-1441 (1963). […]
REPORTED PROPERTY: LD50

S=C(NCCN1CCOCC1)c1ccc(Br)cc1 1250 to 2500 mg/kg
S=C(NCCN1CCOCC1)c1ccc(Cl)cc1 1250 to 2500 mg/kg

Let us examine a further case.
Query: LD50; subject: `CC(C)(C)c1ccc(C(=S)NCCN2CCOCC2)cc1` > 5000 mg/kg
